Exercise: state measured LD50 for each of the compounds provided.
# Run Description: Oral LD50
# Details: in vivo

Reported LD50 for CC(OC(=O)c1ccc(Oc2ccc(Cl)cc2)cn1)OC(=O)C(C)(C)C (stereo not drawn) : what is it? 900 to 1000 mg/kg

# iterate: `NC(=O)c1ccc(Oc2ccccc2C(F)(F)F)cn1` 950 mg/kg

# iterate: O=C(O)c1ccc(Oc2ccccc2Cl)cn1 [5-(o-Chlorophenoxy)picolinic Acid, 5-(o-chlorophenoxy)picolinic acid] 400 to 600 mg/kg

# iterate: NC(=O)c1ccc(OCCCCCl)cn1 [5-(4-Chlorobutoxy)picolinic Acid Amide, 5-(4-chlorobutoxy)picolinic acid amide] 1500 to 1600 mg/kg

# iterate: O=C(O)c1ccc(Oc2ccc(Cl)cc2)cn1 [5-(p-Chlorophenoxy)picolinic Acid, 5-(p-chlorophenoxy)picolinic acid] 400 to 600 mg/kg

# iterate: `O=C(Oc1ccc2c(c1)CCC2)c1ccc(Oc2ccc(Cl)cc2)cn1` 700 to 800 mg/kg

# iterate: `O=C(Oc1ccc2c(c1)CCC2)c1ccc(OCCCCCl)cn1` 1600 to 1800 mg/kg

# iterate: `O=C(O)c1ccc(Oc2ccccc2C(F)(F)F)cn1` 400 to 600 mg/kg

# iterate: O=C(O)c1ccc(OCCCCCl)cn1 [5-(4-Chlorobutoxy)picolinic Acid, 5-(4-chlorobutoxy)picolinic acid] 900 mg/kg

###

# Run Description: Acute toxicity (LD50), intraperitoneal (Table 1)
# Type: in vivo
# Details: mouse, in vivo, ip, male ICR mice, 5 week old, observed 1 week after administration
Value Type: LD50 at 168 h

Reported LD50 at 168 h for `O=C(O)c1ccc(Oc2ccc(C(F)(F)F)cc2C(F)(F)F)cn1` : what is it? 200 to 250 mg/kg

# iterate: `COc1ccc(Oc2ccc(C(=O)O)nc2)c(OC)c1` 400 to 450 mg/kg

# iterate: `O=C(O)c1ccc(Oc2ccc([N+](=O)[O-])cc2)cn1` 500 to 600 mg/kg

# iterate: `O=C(O)c1ccc(Oc2ccccc2Cl)cn1` 150 to 200 mg/kg

# iterate: `COc1ccc(Oc2ccc(C(=O)O)nc2)cc1` 500 to 600 mg/kg

# iterate: `Cl.Cl.Nc1ccc(Oc2ccc(C(=O)O)nc2)cc1` 450 to 500 mg/kg

# iterate: `O=C(O)c1ccc(OCCCCl)cn1` 150 to 200 mg/kg

# iterate: CCCCOc1ccc(C(=O)O)nc1 [5-n-Butoxy-picolinic Acid, reference compound] 100 to 150 mg/kg

# iterate: `CC(=O)c1ccc(Oc2ccc(C(=O)O)nc2)cc1` 400 to 500 mg/kg

# iterate: `O=C(O)c1ccc(Oc2ccc(C(F)(F)F)cc2)cn1` 200 to 250 mg/kg

# iterate: `O=C(O)c1ccc(Oc2ccc(Cl)cc2Cl)cn1` 150 to 200 mg/kg

# iterate: `Cc1ccc(Oc2ccc(C(=O)O)nc2)c(C)c1` 250 to 300 mg/kg

# iterate: `O=C(O)c1ccc(Oc2cccc(C(F)(F)F)c2)cn1` 500 to 600 mg/kg

# iterate: `O=C(O)c1ccc(Oc2c(Cl)cccc2Cl)cn1` 150 to 200 mg/kg

# iterate: `Cc1ccc(Oc2ccc(C(=O)O)nc2)cc1` 200 to 300 mg/kg

# iterate: `O=C(O)c1ccc(Oc2ccc(Br)cc2)cn1` 150 to 200 mg/kg

# iterate: `O=C(O)c1ccc(Oc2ccccc2C(F)(F)F)cn1` 150 to 200 mg/kg

# iterate: CCCCc1ccc(C(=O)O)nc1 [Fusaric Acid, 5-n-butylpicolinic acid, reference compound] 75 to 100 mg/kg

# iterate: `O=C(O)c1ccc(Oc2cccc(Cl)c2)cn1` 300 to 400 mg/kg
